Target: recombinant GSK3β (Homo sapiens)
Sequence (P49841 whole entry): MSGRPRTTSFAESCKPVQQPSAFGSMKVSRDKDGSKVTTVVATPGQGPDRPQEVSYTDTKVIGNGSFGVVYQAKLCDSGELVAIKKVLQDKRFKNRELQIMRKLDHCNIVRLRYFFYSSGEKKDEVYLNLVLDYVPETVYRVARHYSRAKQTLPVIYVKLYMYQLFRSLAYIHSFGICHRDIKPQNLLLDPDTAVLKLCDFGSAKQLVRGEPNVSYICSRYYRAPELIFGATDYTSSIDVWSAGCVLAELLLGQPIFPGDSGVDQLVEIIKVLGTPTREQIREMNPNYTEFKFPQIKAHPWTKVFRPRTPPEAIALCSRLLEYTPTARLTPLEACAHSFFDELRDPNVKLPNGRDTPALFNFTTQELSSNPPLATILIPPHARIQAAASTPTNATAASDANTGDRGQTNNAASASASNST
Test: ADP-Glo kinase assay of GSK3β activity
Format: biochemical
Details: GSK3β kinase activity, 2 μM ATP
Measurement type: IC50 (µM)
Supply the numeric figure in µM, leaving out any unit text.

Consider the worked cases shown below.
[[record]]
compound = "COc1ccccc1N1CCN(CC2CC3(CO2)C(=O)Nc2ccccc23)CC1 (stereo not shown)"
measurement_type = "IC50"
unit_descriptor = "µM"
obs_value = 4.92

[[record]]
compound = "O=Cc1ccccc1OCc1cn(CC2CC3(CO2)C(=O)Nc2ccccc23)nn1 (stereo not shown)"
measurement_type = "IC50"
unit_descriptor = "µM"
obs_value = 4.93

[[record]]
compound = "CCOC(=O)c1ccc(-c2ccccc2OCc2cn(CC3CC4(CO3)C(=O)Nc3ccccc34)nn2)nc1C (stereo not shown)"
measurement_type = "IC50"
unit_descriptor = "µM"
obs_value = 3.88


Let us move to another entry and its IC50.
Problem: What does the record list as IC50 for O=C1Nc2ccccc2C12COC(CN1CCOCC1)C2 (stereo not shown) ?
Result: 4.91
